biological target: Protein AF-9 (Homo sapiens, UniProt P42568); assay: Displacement of N-Flu-DOT1L from MBP-tagged AF9 (unknown origin) (487 to 568 residues) expressed in Escherichia coli BL21(DE3) measured after 3 hrs by fluorescence polarization assay
Sequence (P42568 whole entry, the tested form may be a part): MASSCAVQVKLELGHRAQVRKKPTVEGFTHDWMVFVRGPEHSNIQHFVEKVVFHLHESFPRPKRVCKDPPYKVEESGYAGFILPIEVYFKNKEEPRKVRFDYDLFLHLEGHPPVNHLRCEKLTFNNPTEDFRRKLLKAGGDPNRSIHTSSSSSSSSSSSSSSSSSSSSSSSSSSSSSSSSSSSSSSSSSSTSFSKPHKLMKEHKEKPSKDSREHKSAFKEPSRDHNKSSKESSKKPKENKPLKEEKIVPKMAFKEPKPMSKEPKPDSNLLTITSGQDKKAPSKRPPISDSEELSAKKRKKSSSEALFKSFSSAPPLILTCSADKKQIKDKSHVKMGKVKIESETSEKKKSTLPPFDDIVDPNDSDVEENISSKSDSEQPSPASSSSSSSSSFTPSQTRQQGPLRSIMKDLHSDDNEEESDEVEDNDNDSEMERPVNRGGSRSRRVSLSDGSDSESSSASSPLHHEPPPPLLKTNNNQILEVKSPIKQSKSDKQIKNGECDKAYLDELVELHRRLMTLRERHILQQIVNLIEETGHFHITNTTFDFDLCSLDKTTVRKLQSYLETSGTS
Below: a set of entries, each annotated with reported pIC50.
In plain terms, pIC50 is the concentration in mol/L turned into minus its base-10 logarithm.

Below: 2 substances and their reported pIC50.
SUBSTANCE	pIC50
Ac-LPVSIPL-NH2	5.99
Ac-LPISIPLSTV-NH2	6.85

Next item in the queue.
Enquiry: Fill blank: measured pIC50 of the substance Ac-LPISIPL-NH2 is ____.
Return: 5.98

Reference source for all entries: ChEMBL document CHEMBL4196231
